The following molecules each carry a recorded IC50 for PI3Kγ (Homo sapiens).

{"Molecule": "C=CC(=O)Nc1ccc(N2CC(N3CCN(c4ccc5c(c4)-c4nc(N6C(=O)OC[C@H]6C(F)F)cn4CCO5)CC3)C2)cc1 [Compound 27]", "Unit Of Measure": "µM", "IC50": 0.026}
{"Molecule": "CN(C)C/C=C/C(=O)Nc1ccc(N2CC(N3CCN(c4ccc5c(c4)-c4nc(N6C(=O)OC[C@H]6C(F)F)cn4CCO5)CC3)C2)cc1 [Compound 96]", "Unit Of Measure": "µM", "IC50": 0.223}
{"Molecule": "C=CC(=O)N1CC[C@@H](C(=O)NCC(=O)N2CCN(c3ccc4c(c3)-c3nc(N5C(=O)OC[C@H]5C(F)F)cn3CCO4)CC2)C1 [Compound 2]", "Unit Of Measure": "µM", "IC50": 0.044}
{"Molecule": "C=CC(=O)N1CCC(N2CC(CN3CCN(c4ccc5c(c4)-c4nc(N6C(=O)OC[C@H]6C(F)F)cn4CCO5)CC3)C2)CC1 [Compound 5]", "Unit Of Measure": "µM", "IC50": 1.2}

====

- System: HCC1954 cells (with PI3Kα H1047R mutation)
- Protocol Notes: In vitro inhibition of HCC1954 cell proliferation (CellTiter-Lumi)
- Type: cell-based
- Setup Conditions: Homo sapiens, HCC1954, 144 h, HCC1954 cells, 144 h, CellTiter-Lumi; numeric values; read-out: Inhibitory activity against HCC1954 cells (IC50)
Readout: IC50 (µM)

{"Compound": "C=CC(=O)Nc1ccc(N2CC[C@H](CN3CCN(c4ccc5c(c4)-c4nc(N6C(=O)OC[C@H]6C(F)F)cn4CCO5)CC3)C2)cc1 [Compound 20]", "Value": 0.438}
{"Compound": "CN(C)C/C=C/C(=O)Nc1ccc(N2CC(N3CCN(c4ccc5c(c4)-c4nc(N6C(=O)OC[C@H]6C(F)F)cn4CCO5)CC3)C2)cc1 [Compound 96]", "Value": 0.026}
{"Compound": "C=CC(=O)Nc1ncc(N2CC(N3CCN(c4ccc5c(c4)-c4nc(N6C(=O)OC[C@H]6C(F)F)cn4CCO5)CC3)C2)cn1 [Compound 162]", "Value": 0.0034}
{"Compound": "C=CC(=O)Nc1ccc(CC(=O)N2CCN(c3ccc4c(c3)-c3nc(N5C(=O)OC[C@H]5C(F)F)cn3CCO4)CC2)cc1 [Compound 1]", "Value": 0.103}
{"Compound": "C=CC(=O)Nc1ccc(N2CC(N3CCN(c4ccc5c(c4)-c4nc(N6C(=O)OC[C@H]6C(F)F)cn4CCO5)CC3)C2)cc1 [Compound 27]", "Value": 0.009}
{"Compound": "CC(C)(N)C=C(C#N)C(=O)Nc1ccc(N2CC(N3CCN(c4ccc5c(c4)-c4nc(N6C(=O)OC[C@H]6C(F)F)cn4CCO5)CC3)C2)cc1 [Compound 137]", "Value": 0.0006}
{"Compound": "C=CC(=O)N1CC(CN2CCC(N3CCN(c4ccc5c(c4)-c4nc(N6C(=O)OC[C@H]6C(F)F)cn4CCO5)CC3)CC2)C1 [Compound 64]", "Value": 0.314}
{"Compound": "C=CC(=O)N1CCc2nc(N3CC(N4CCN(c5ccc6c(c5)-c5nc(N7C(=O)OC[C@H]7C(F)F)cn5CCO6)CC4)C3)sc2C1 [Compound 154]", "Value": 0.054}
{"Compound": "C=CC(=O)N1CCC(N2CC[C@H](CN3CCN(c4ccc5c(c4)-c4nc(N6C(=O)OC[C@H]6C(F)F)cn4CCO5)CC3)C2)CC1 [Compound 59]", "Value": 0.872}
{"Compound": "C=CC(=O)Nc1ccc(N2CCN(c3ccc4c(c3)-c3nc(N5C(=O)OC[C@H]5C(F)F)cn3CCO4)CC2)cc1 [Compound 174]", "Value": 0.166}
{"Compound": "C=CC(=O)N1CCC(N2CC(CN3CCN(c4ccc5c(c4)-c4nc(N6C(=O)OC[C@H]6C(F)F)cn4CCO5)CC3)C2)CC1 [Compound 5]", "Value": 0.67}
{"Compound": "C=CC(=O)Nc1cc(C)c(N2CC(N3CCN(c4ccc5c(c4)-c4nc(N6C(=O)OC[C@H]6C(F)F)cn4CCO5)CC3)C2)cn1 [Compound 140]", "Value": 0.006}
{"Compound": "C=CC(=O)N1CC(N2CCC(CN3CCN(c4ccc5c(c4)-c4nc(N6C(=O)OC[C@H]6C(F)F)cn4CCO5)CC3)CC2)C1 [Compound 17]", "Value": 0.081}
{"Compound": "C=CC(=O)Nc1ccc(N2CC(N3CCC(c4ccc5c(c4)-c4nc(N6C(=O)OC[C@H]6C(F)F)cn4CCO5)CC3)C2)cc1 [Compound 104]", "Value": 0.065}
{"Compound": "C=CC(=O)N1CCN(CCCC(=O)N2CCN(c3ccc4c(c3)-c3nc(N5C(=O)OC[C@H]5C(F)F)cn3CCO4)CC2)CC1 [Compound 15]", "Value": 0.128}
{"Compound": "C=CC(=O)N1CCn2nc(N3CC(N4CCN(c5ccc6c(c5)-c5nc(N7C(=O)OC[C@H]7C(F)F)cn5CCO6)CC4)C3)cc2C1 [Compound 164]", "Value": 0.053}
{"Compound": "C=CC(=O)N1CCc2c1ccc(N1CC(N3CCN(c4ccc5c(c4)-c4nc(N6C(=O)OC[C@H]6C(F)F)cn4CCO5)CC3)C1)c2F [Compound 166]", "Value": 0.0094}
{"Compound": "C=CC(=O)Nc1ccc(N2CC(N3CCN(c4ccc5c(c4)-c4nc(-c6nc(C)nn6C(C)C)cn4CCO5)CC3)C2)cc1 [Compound 111]", "Value": 0.0025}
{"Compound": "C=CC(=O)Nc1ccc(N2CC(CN3CCN(c4ccc5c(c4)-c4nc(N6C(=O)OC[C@H]6C(F)F)cn4CCO5)CC3)C2)cc1 [Compound 4]", "Value": 0.065}
{"Compound": "C=CC(=O)N1CC(N2CCC(N3CCN(c4ccc5c(c4)-c4nc(N6C(=O)OC[C@H]6C(F)F)cn4CCO5)CC3)C2)C1 (stereo partly shown) [Compound 90]", "Value": 0.225}
{"Compound": "C=CC(=O)Nc1ccc(N2CC(N3CCN(c4ccc5c(c4)-c4nc(N6C(=O)OC[C@H]6C(F)F)cn4CCO5)CC3)C2)cc1C(F)(F)F [Compound 142]", "Value": 0.0083}
{"Compound": "C=CC(=O)N1CCc2cc(N3CC(N4CCN(c5ccc6c(c5)-c5nc(N7C(=O)OC[C@H]7C(F)F)cn5CCO6)CC4)C3)ccc21 [Compound 134]", "Value": 0.0027}
{"Compound": "C=CC(=O)Nc1ccc(N2CC(N3CCN(c4ccc5c(c4)-c4nc(N6C(=O)OC[C@H]6C)cn4CCO5)CC3)C2)cn1 [Compound 147]", "Value": 0.029}
{"Compound": "C=CC(=O)N1CC(N2CC(CN3CCN(c4ccc5c(c4)-c4nc(N6C(=O)OC[C@H]6C(F)F)cn4CCO5)CC3)C2)C1 [Compound 60]", "Value": 0.174}
{"Compound": "C=CC(=O)N1CC(N2CC[C@H](CN3CCN(c4ccc5c(c4)-c4nc(N6C(=O)OC[C@H]6C(F)F)cn4CCO5)CC3)C2)C1 [Compound 92]", "Value": 0.2}
